Origin of measurements: patent US11325899B2

- target: EP2 receptor (Homo sapiens)
- Construct: SF295 glioblastoma cells express high endogenous EP2 and no EP4
- Sequence (P43116 whole entry): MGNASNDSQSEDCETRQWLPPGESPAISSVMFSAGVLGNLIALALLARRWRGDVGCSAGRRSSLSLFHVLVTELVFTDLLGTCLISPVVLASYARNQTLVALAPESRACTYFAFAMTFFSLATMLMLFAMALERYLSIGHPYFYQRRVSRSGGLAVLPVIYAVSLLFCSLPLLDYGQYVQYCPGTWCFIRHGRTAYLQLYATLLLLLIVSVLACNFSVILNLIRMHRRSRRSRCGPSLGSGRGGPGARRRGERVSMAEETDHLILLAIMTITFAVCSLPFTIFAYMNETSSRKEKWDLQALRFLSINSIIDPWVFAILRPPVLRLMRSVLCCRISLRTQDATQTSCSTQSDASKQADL
- procedure.details: hEP2 cAMP assay (SF295 glioblastoma cells, HTRF cAMP, PGE2 stimulation)
- assay.context: antagonistic activity
Could you please mark 1 for values of IC50 below 200 nM and 0 for values at or above it?

>  <structure.notation>
CCc1oc2c(C)cc(F)cc2c1CCNc1cc(-c2ccc(C(=O)O)c(SC)c2)ncn1

>  <class.name>
1

$$$$

Inquiry: Hello, is IC50 of the following molecule strictly smaller than 200 nM? COc1cc(Cl)cc2c(CCNc3cc(-c4ccc(C(=O)O)c(OC5CCC5)c4)ncn3)c(C)oc12
Reply text: 1

Inquiry: Hello, is IC50 of the following molecule strictly smaller than 200 nM? Cc1sc2c(C)cc(F)cc2c1CCNc1cc(-c2cc3c(C(=O)O)cccc3[nH]2)ncn1
Reply text: 1

Inquiry: Hello, is IC50 of the following molecule strictly smaller than 200 nM? COc1ccc(Cl)c2c(CCNc3cc(-c4ccc(C(=O)O)c(OC5CCCC5)c4)ncn3)c(C)sc12
Reply text: 0

Inquiry: Hello, is IC50 of the following molecule strictly smaller than 200 nM? CCOc1cc(-c2cc(NCCc3c(C)sc4c(Cl)cc(F)cc34)ncn2)ccc1CC(=O)O
Reply text: 0

Inquiry: Hello, is IC50 of the following molecule strictly smaller than 200 nM? Cc1sc2c(C)cc(F)cc2c1CCNc1cc(-c2ccc(CC(=O)O)c(OC3CC3)c2)ncn1
Reply text: 1

Inquiry: Hello, is IC50 of the following molecule strictly smaller than 200 nM? COc1ccc(Cl)c2c(CCNc3cc(-c4ccc(C(=O)O)c(O)c4)ncn3)c(C)sc12
Reply text: 1

Inquiry: Hello, is IC50 of the following molecule strictly smaller than 200 nM? CCOc1cc(-c2cc(NCCc3c(C)oc4c(OC)cc(Cl)cc34)ncn2)ccc1OCC(=O)O
Reply text: 1

* * *

IC50 reference
- target: EP4 receptor (Homo sapiens, UniProt P35408)
- Construct: BT549 breast cancer cells, express high endogenous EP4 levels and very low EP2 levels
- Sequence (P35408 whole entry): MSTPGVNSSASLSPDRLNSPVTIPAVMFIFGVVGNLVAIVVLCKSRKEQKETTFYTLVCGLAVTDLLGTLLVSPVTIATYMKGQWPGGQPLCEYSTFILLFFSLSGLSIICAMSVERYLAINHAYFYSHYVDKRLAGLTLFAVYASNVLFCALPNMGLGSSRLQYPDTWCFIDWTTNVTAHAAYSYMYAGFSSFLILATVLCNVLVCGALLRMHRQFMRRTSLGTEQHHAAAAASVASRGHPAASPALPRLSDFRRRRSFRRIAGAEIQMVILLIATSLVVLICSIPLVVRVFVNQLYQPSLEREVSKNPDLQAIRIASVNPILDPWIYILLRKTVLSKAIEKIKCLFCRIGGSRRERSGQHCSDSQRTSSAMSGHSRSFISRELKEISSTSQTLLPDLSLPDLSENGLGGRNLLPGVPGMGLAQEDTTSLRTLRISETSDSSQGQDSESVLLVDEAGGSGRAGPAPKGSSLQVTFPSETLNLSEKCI
- procedure.details: hEP4 cAMP assay (BT549 breast cancer cells, HTRF cAMP, PGE2 stimulation)
- assay.context: antagonistic activity, PGE2 6 nM (EC80)
Hi! Could you send only the number? It should be in nM, unit omitted.

Reference set, count: 3
>  <compound>
CCCOc1cc(-c2cc(NCCc3c(C)sc4c(C)c(F)ccc34)ncn2)ccc1C(=O)O [Example 99]

>  <target>
EP4 receptor (Homo sapiens, UniProt P35408)

>  <result.units>
nM

>  <IC50>
450

$$$$
>  <compound>
COc1cc(-c2cc(NCCc3c(C)sc4c(OC)ccc(Cl)c34)ncn2)ccc1C(=O)O [Example 40]

>  <target>
EP4 receptor (Homo sapiens, UniProt P35408)

>  <result.units>
nM

>  <IC50>
433

$$$$
>  <compound>
CSc1cc(-c2cc(NCCc3c(C)sc4c(C)cc(F)cc34)ncn2)ccc1C(=O)O [Example 17]

>  <target>
EP4 receptor (Homo sapiens, UniProt P35408)

>  <result.units>
nM

>  <IC50>
243

$$$$

Inquiry: What does the data say about its IC50? Entry: Cc1oc2ccccc2c1CCNc1cc(-c2ccc(C(=O)O)c(SC(C)C)c2)ncn1 [Example 92]
Reply text: 672
